test-method-notes: Cytotoxicity Huh-7 cells (MTS/PMS)
Assay type: cell-based
measurement-setup: human, 3-day incubation
quantity-measured: CC50 at 3 days (µM)
Write the answer as a number in µM, unit excluded.

{"molecule": "NCCCC[C@H](NC(=O)Nc1ccc(-c2ccccc2)cc1)C(=O)Nc1ccc(C2CCCCC2)cc1 [Compound 119]", "CC50 at 3 days (µM)": 12.2}
{"molecule": "Cc1ccc(NC(=O)C[C@H](CCCCN)NC(=O)Nc2ccc(OCc3ccccc3)cc2)cc1 [Compound 246]", "CC50 at 3 days (µM)": 45.9}
{"molecule": "Cc1ccc(NC(=O)[C@H](CCCCN)NC(=O)Nc2ccc(OCc3ccccc3)cc2)cc1 [Compound 2]", "CC50 at 3 days (µM)": 22.2}
{"molecule": "Cc1cc2cc(NC(=O)[C@H](CCCNC(=O)CN)NC(=O)Nc3ccc4c(c3)Cc3ccccc3-4)ccc2[nH]1 [Compound 297]", "CC50 at 3 days (µM)": 9.9}
{"molecule": "CC1CCC(NC(=O)[C@H](CCCCN)NC(=O)Nc2ccc(OCc3ccccc3)cc2)CC1 (some centres unmarked) [Compound 264]", "CC50 at 3 days (µM)": 26.6}
{"molecule": "Cc1ccc(NC(=O)[C@@H](CCCCN)NC(=O)Nc2ccc(OCc3ccccc3)cc2)cc1 [Compound 172]", "CC50 at 3 days (µM)": 26}

Fill in: CC50 at 3 days of Cc1ccc(NC(=O)[C@H](CCCCN)NC(=O)Nc2ccc3c(c2)Cc2ccccc2-3)cc1 [Compound 125] is ___
9.7
